Ref: ChEMBL document CHEMBL1131070

experiment: Lethal dose (LD50) determined in male ddY mice
Format: toxicity
settings: mouse, in vivo
measurement name: LD50
I'd appreciate it if you included the unit after the number.

Use these answered entries as a reference point.
compound: CC(O)COc1ccc(NC(=O)CC[S+](C)C)cc1.Cc1ccc(S(=O)(=O)[O-])cc1 (centres undefined)
LD50: 495 mg/kg

compound: CCCOc1ccc(NC(=O)CC[S+](C)C)cc1.Cc1ccc(S(=O)(=O)[O-])cc1
LD50: 97 mg/kg

compound: C[S+](C)CCC(=O)Nc1ccc(OCC(O)CO)cc1.Cc1ccc(S(=O)(=O)[O-])cc1 (centres undefined)
LD50: 1040 mg/kg

Using the record for C[S+](C)CCC(=O)Nc1ccc(OCCCO)cc1.Cc1ccc(S(=O)(=O)[O-])cc1 , report its LD50. 324 mg/kg
